- assay-info: A CellTox Green Cytotoxicity Assay to monitor cytotoxicity in HEK293 cells - 16 hour (AID 1224888); note: nearly all actives have a fitted effect of over 35% in size
- condition-notes: CellTox Green fluorescence; series mostly up to 76.8 µM
- Source text: National Center for Advancing Translational Sciences [NCATS] NIH Chemical Genomics Center [NCGC] U.S. Environmental Protection Agency [EPA] National Institutes of Environmental Health Sciences [NIEHS] National Toxicology Program [NTP] Cell-based models are critical for drug discovery. […] Viable cells produce no appreciable increases in fluorescence. Therefore, the fluorescence signal produced by the binding interaction with dead cell DNA is proportional to cytotoxicity. […]
Inconclusive results are not listed. Calls of active or inactive are those of the source. Calls come from the whole dose curve; as a rule, active = well fitted activation curve with a large enough effect in the repeat runs; inconclusive = weak or mixed curves; inactive = flat fitted curve, though single readings scatter.
readout-label: activity change

// below: answered compounds
compound | readout-label | result-value
C=Cc1c(C)c2cc3[nH]c(cc4nc(cc5nc(cc1[nH]2)C(C)=C5CCC(=O)O)C(CCC(=O)O)=C4C)c(C)c3C=C | activity change | inactive
CC(C)(C)c1ccc(S)cc1 | activity change | inactive
CC(C)(Oc1ccc(Cl)cc1)C(=O)OCCCOC(=O)C(C)(C)Oc1ccc(Cl)cc1 | activity change | inactive
CNS(=O)(=O)Cc1ccc2[nH]cc(CCN(C)C)c2c1 | activity change | inactive
CC(C)NCC(O)c1cc(O)cc(O)c1 (centres undefined) | activity change | inactive

Okay, now this compound:
Asked: Given the entry CC(C)(C)C(=O)OCOP(=O)(COCCn1cnc2c(N)ncnc21)OCOC(=O)C(C)(C)C , report its measured activity change.
Given back: inactive

* * *

- assay-info: qHTS assay for small molecule agonists of the antioxidant response element (ARE) signaling pathway - cell viability counter screen (AID 743203); note: nearly all actives have a fitted effect of over 55% in size
- condition-notes: ARE-bla HepG2 viability, CellTiter-Glo luminescence, 16 h; series mostly up to 73.3 µM
- Source text: National Center for Advancing Translational Sciences [NCATS] NIH Chemical Genomics Center [NCGC] U.S. Environmental Protection Agency [EPA] National Institutes of Environmental Health Sciences [NIEHS] National Toxicology Program [NTP] U.S. Food and Drug Administration [FDA] Oxidative stress has been implicated in the pathogenesis of a variety of diseases ranging from cancer to neurodegeneration. […] The activation of the report gene under culture conditions can be detected by fluorescence intensity. […]
Results filed as inconclusive are left out. Active and inactive are the calls of the source. Calls come from the whole dose curve.
readout-label: viability change, negative = cytotoxic

// below: answered molecules
molecule | result-value
CN(C(=O)CCCOc1ccc2[nH]c(=O)ccc2c1)C1CCCCC1 | inactive
Cc1ccccn1 | inactive
O=C(C(=O)c1ccc(Br)cc1)c1ccc(Br)cc1 | inactive
CC(C)(C)c1ccc(S)cc1 | inactive
CCCCCCOC(=O)CCC | inactive

Asked: Given the entry COc1ccc2[nH]c(S(=O)Cc3ncc(C)c(OC)c3C)nc2n1 (centres undefined) , report its measured viability change, negative = cytotoxic.
Given back: inactive

Asked: Given the entry Oc1ccc(Sc2ccc(O)cc2)cc1 , report its measured viability change, negative = cytotoxic.
Given back: inactive

Asked: Given the entry CC1(C)[C@H]2CC[C@]1(C)[C@H](O)C2 , report its measured viability change, negative = cytotoxic.
Given back: inactive

Asked: Given the entry CC(C)NCC(O)c1cc(O)cc(O)c1 (centres undefined) , report its measured viability change, negative = cytotoxic.
Given back: inactive

Asked: Given the entry COC(=O)CSc1cc(N=c2sc(=O)n3n2CCCC3)c(F)cc1Cl , report its measured viability change, negative = cytotoxic.
Given back: inactive

Asked: Given the entry CC(CN)CCCN (centres undefined) , report its measured viability change, negative = cytotoxic.
Given back: inactive

Asked: Given the entry CCCCOc1ccc(CC(=O)NO)cc1 , report its measured viability change, negative = cytotoxic.
Given back: inactive

Asked: Given the entry c1ccc(OCc2ccc(CCCN3CCOCC3)cc2)cc1 , report its measured viability change, negative = cytotoxic.
Given back: inactive

Asked: Given the entry CN1CCC(=C2c3ccccc3CCc3sccc32)CC1 , report its measured viability change, negative = cytotoxic.
Given back: inactive

* * *

- study-target: Nuclear receptor subfamily 1 group I member 3 (Homo sapiens)
- assay-info: qHTS assay to identify small molecule antagonists of the constitutive androstane receptor (CAR) signaling pathway (AID 1224838);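 note: HepG2 cells stably expressing hCAR with CYP2B6 luciferase reporter stimulated by CITCO; nearly all actives have a fitted effect of over 40% in size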
- condition-notes: HepG2-CYP2B6-hCAR luciferase, CITCO-stimulated, 24 h; series mostly up to 92.4 µM
Records with an inconclusive call do not appear. The source made the active and inactive calls. Calls follow the shape of the dose curve; as a rule, active = well fitted inhibition curve with a large enough effect in the repeat runs; inconclusive = weak or mixed curves, or effect the other way; inactive = no such curve, though single readings can be large or run the other way.
Result category, one only: true = active, false = inactive

Asked: Entry O=C(Cl)c1c(Cl)cccc1Cl : call = ?
Given back: false

Asked: Entry CCCCOc1cc(C(=O)OCCN(CC)CC)ccc1N : call = ?
Given back: false

Asked: Entry CNS(=O)(=O)Cc1ccc2[nH]cc(CCN(C)C)c2c1 : call = ?
Given back: false

Asked: Entry CC1CCc2cc(F)cc3c(=O)c(C(=O)O)cn1c23 (configuration not stated) : call = ?
Given back: false

Asked: Entry CC(C)NCC(O)c1cc(O)cc(O)c1 (configuration not stated) : call = ?
Given back: false

Asked: Entry CN1CCC(=C2c3ccccc3CCc3sccc32)CC1 : call = ?
Given back: false

Asked: Entry Oc1ccc(Cc2ccccc2)cc1 : call = ?
Given back: false

Asked: Entry O=C(c1ccccc1)c1ccc2n1CCC2C(=O)O (configuration not stated) : call = ?
Given back: false

Asked: Entry CC(C)(C)c1cc(CO)cc(C(C)(C)C)c1O : call = ?
Given back: false

Asked: Entry Cc1cccc(Oc2ccccc2)c1 : call = ?
Given back: false

Asked: Entry CCOC(=O)CC(C)C : call = ?
Given back: false

Asked: Entry O=C=NC1CCC(CC2CCC(N=C=O)CC2)CC1 (configuration not stated) : call = ?
Given back: false

Asked: Entry Cc1cccc(OCCOc2cccc(C)c2)c1 : call = ?
Given back: false

Asked: Entry Cc1ccc2c(ccc3ccccc32)c1 : call = ?
Given back: false

Asked: Entry Oc1ccc2c(c1)OCO2 : call = ?
Given back: false

Asked: Entry Cc1cc(O)ccc1N : call = ?
Given back: true

Asked: Entry NC(N)=NN=C(/C=C/c1ccc([N+](=O)[O-])o1)/C=C/c1ccc([N+](=O)[O-])o1 : call = ?
Given back: true

Asked: Entry CCc1nn(C2CCCCC2)c2cc(C3(C#N)CCC(C(=O)O)CC3)ccc12 (configuration not stated) : call = ?
Given back: false

Asked: Entry CCOC(=O)[C@H](CCc1ccccc1)N[C@H]1CCc2ccccc2N(CC(=O)O)C1=O : call = ?
Given back: false

Asked: Entry CC(C)CC=O : call = ?
Given back: false

Asked: Entry CC1=CCC(C(C)C)C=C1 (configuration not stated) : call = ?
Given back: false

Asked: Entry C=C(C)C(=O)OCCN(C)C : call = ?
Given back: false

Asked: Entry CCN(CC)CCc1nc(-c2ccccc2)no1 : call = ?
Given back: false

Asked: Entry Cc1ccc(C(C)c2ccc(C)c(C)c2)cc1C : call = ?
Given back: false

Asked: Entry CC(C)CCCC(C)CCO (configuration not stated) : call = ?
Given back: false

Asked: Entry CN1CCN(C2=Nc3ccccc3Sc3ccc(Cl)cc32)CC1 : call = ?
Given back: false

Asked: Entry Cc1ccc(C)o1 : call = ?
Given back: false

* * *

- study-target: Estrogen receptor (Homo sapiens)
- assay-info: qHTS assay to identify small molecule antagonists of the estrogen receptor alpha (ER-alpha) signaling pathway (AID 743069)
- condition-notes: HEK293 ER-alpha-UAS-bla, beta-lactamase ratio, antagonist mode; series mostly up to 69.4 µM
Activity calls are given as the source filed them. Calls follow the shape of the dose curve; as a rule, active = well fitted curve in the direction sought with a large enough effect in the signal ratio in the repeat runs (not every such curve was filed as active); inconclusive = weak or mixed curves, or effect the other way; inactive = no such curve, though single readings can be large or run the other way; the % refers to the signal ratio.
Result category, one only: Y (active), N (inactive)

Asked: Entry ClC(Cl)(Cl)c1ccc(C(Cl)(Cl)Cl)cc1 : call = ?
Given back: N

Asked: Entry O=C(NN1CCCC1)NS(=O)(=O)c1ccc(Cl)cc1 : call = ?
Given back: N

Asked: Entry CCc1nn(C2CCCCC2)c2cc(C3(C#N)CCC(C(=O)O)CC3)ccc12 (configuration not stated) : call = ?
Given back: Y

Asked: Entry CCOc1nc2cccc(C(=O)O)c2n1Cc1ccc(-c2ccccc2-c2nn[nH]n2)cc1 : call = ?
Given back: Y

Asked: Entry CCCCC(CC)COCCCN (configuration not stated) : call = ?
Given back: N

Asked: Entry FC(F)(F)C(F)(F)C(F)(F)C(F)(F)C(F)(F)C(F)(F)CCI : call = ?
Given back: N

Asked: Entry CC(=O)N(O)CCCCCNC(=O)CCC(=O)N(O)CCCCCNC(=O)CCC(=O)N(O)CCCCCN : call = ?
Given back: N

Asked: Entry Cc1cc(NC(=O)C(=O)O)cc(C)c1Oc1ccc(O)c2c1CCC2 : call = ?
Given back: N

Asked: Entry O=S(=O)(O)c1ccc(O)c2ncccc12 : call = ?
Given back: N

Asked: Entry CCN(CC)CCNC(C(=O)OCCC(C)C)c1ccccc1 (configuration not stated) : call = ?
Given back: N

Asked: Entry Cc1ccccc1N=Nc1ccc(N=Nc2c(O)ccc3ccccc23)c(C)c1 : call = ?
Given back: N

Asked: Entry CC[C@H](C)[C@@H](C(=O)O)n1sc2ccccc2c1=O : call = ?
Given back: N
